Hey, just so you know, these numbers are from patent US20080267914A1.

System: HCV replicon cells Huh 9B
Assay: HCV replicon luciferase assay
Assay type: cell-based, hepatitis C virus
Conditions: Huh 9B replicon cells, 72 h incubation, luciferase readout
valueType: IC50

[[record]]
itemsmiles = "CCOc1ccc(-c2ccc3ncnc(Nc4ccc(N5CCOCC5)cc4)c3c2)cc1OCC"
valuereported = "< 1000 nM"


----------
System: HCV replicon cells Huh 9B
Assay type: cell-based
Details: Huh 9B replicon cells, 72 h incubation, methylene blue absorbance at 620 nm
valueType: Replicon TD5O

[[record]]
itemsmiles = "c1nc(Nc2ccc(N3CCOCC3)cc2)c2cc(-c3ccc(OCCN4CCOCC4)cc3)ccc2n1"
valuetype = "Replicon TD5O"
valuereported = "*** (>25 uM = ***)"

[[record]]
itemsmiles = "CCOc1ccc(-c2ccc3ncnc(Nc4ccc(N5CCOCC5)cc4)c3c2)cc1OCC"
valuetype = "Replicon TD5O"
valuereported = "** (>10 uM = **)"

[[record]]
itemsmiles = "c1nc(Nc2ccc(N3CCOCC3)cc2)c2cc(-c3ccc(OCCCN4CCOCC4)cc3)ccc2n1"
valuetype = "Replicon TD5O"
valuereported = "** (>10 uM = **)"

[[record]]
itemsmiles = "COc1ccc(-c2ccc3ncnc(Nc4ccc(N5CCOCC5)cc4)c3c2)cc1OC"
valuetype = "Replicon TD5O"
valuereported = "** (>10 uM = **)"

[[record]]
itemsmiles = "Fc1cc(-c2ccc3ncnc(Nc4ccc(N5CCOCC5)cc4)c3c2)ccc1OCCN1CCOCC1"
valuetype = "Replicon TD5O"
valuereported = "*** (>25 uM = ***)"

